Catalogue of melting point values
OBSERVED PROPERTY: melting point (°C)

* CCS(=O)(=O)Nc1cc(COc2ccc(-n3c(=O)cc(C(F)(F)F)n(C)c3=O)c(F)c2)ccc1Cl | 151
* Cn1c(C(F)(F)F)cc(=O)n(-c2ccc(OCc3ccc(Cl)c(N)c3)cc2F)c1=O | 148
* Nn1c(C(F)(F)F)cc(=O)n(-c2ccc(OCc3ccc(Cl)c([N+](=O)[O-])c3)cc2F)c1=O | 185
* O=c1cc(C(F)(F)F)[nH]c(=O)n1-c1ccc(OCc2ccc(Cl)c([N+](=O)[O-])c2)cc1F | 165
* Cn1c(C(F)(F)F)cc(=O)n(-c2ccc(OCc3ccc(Cl)c([N+](=O)[O-])c3)cc2F)c1=O | 133
